For each record, write down the corresponding relative binding activity (% of WT).
Target: T1, EGFI-Cr1 V40E (human)
T1 construct: not shown: The fused constant region of human immunoglobulin gamma 1 heavy chain (Cr1)
T1 chain: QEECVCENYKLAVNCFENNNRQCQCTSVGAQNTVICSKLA
Test: direct ELISA, coated EGFI-Cr1 fusion, 0.1 µg/ml antibody
One number for each entry, in %.

Examples with answers:
Request: Quick one: give measured relative binding activity (% of WT) for murine monoclonal antibody 4D2 (antibody, mouse IgG1, V domains shown, Mouse IgG1, kappa, from hybridoma; also called m338-4D2.20) VH: EVQLVESGGDLVKPGGSLKLSCAASGFAFDSYGMSWVRQTPGKRLEWVATISSGGYYTYYQDSVKGRFTTSRDNAKNTLDLQMSSLKSEDSAIYYCARRGNYDVDYYAMDYWGQGTSVTVSS VL: DVVMTQTPLSLPVSLGDQASISCRSSQSLVHSNGNTYLHWYLQKPGQSPKLLIYKVSNRFSGVPDRFSGSGSGTDFTLRISRVEAEDLGVYFCSQSTHVPPWTFGGGTKLEIKR
Result: 1

Request: Quick one: give measured relative binding activity (% of WT) for murine monoclonal antibody 2D11 (antibody, mouse IgG1, V domains shown, Mouse IgG1, kappa, from hybridoma; also called m322-2D11.19) VH: QIQLVQSGPELKKPGETVKISCKASGYTFTNYGMNWVKQAPGKGLKWMGWINTNTGEATYVEEFKGRVVFSLETSASTAYLQINNLKNEDTATYFCARIGYVWYFDVWGAGTTVTVSS VL: DIVMSQSPSSLAVSAGEKVTMSCKSSQSLFSSRTRKNYLAWYQQKPGQSPKLLIYWASTRESGVPDRFTGSGSGTDFTLTINSVQAEDLAVYYCKHSNNLFTFGSGTKLEIKR
Result: 93

Request: Quick one: give measured relative binding activity (% of WT) for murine monoclonal antibody 6D11 (antibody, mouse IgG1, V domains shown, Mouse IgG1, kappa, from hybridoma; also called m338-6D11.8) VH: EVQLVESGGDLVKPGGSLKLSCAASGFAFDSYGMSWIRQTPGTRLEWVATISSGGYYTYYEDNVKGRFIISRDNAKNTLDLQMSGLKSEDAATYYCARRGNYDVDYYAMDYWGQGTSVIVSS VL: DVVLTQIPLSLPVSLGDQASISCRSSQSLEHSNGNTYLHWYLQKPGQSPKLLIYKVSNRFSGVPDRFSGSGSGTDFTLKISRVEAEDLGVYFCSQSTHVPPWTFGGGTKLEFKR
Result: 2

Here is the next item to consider.
Request: Quick one: give measured relative binding activity (% of WT) for murine monoclonal antibody 1G10 (antibody, mouse IgG1, V domains shown, Mouse IgG1, kappa, from hybridoma; also called m290-1G10) VH: QIQLVQSGPELKKPGETVKISCKASGYTFTNYGMNWVKQAPGKGFKWMGWINTYTGEPTYADDFKGRFAFSLETSASTAYLQINNLQNEDMATYFCARWGYDFDYWGQGTTLTVSS VL: QIVLTQSPAIMSSSPGEKVTMTCSASSSISYMNWYQQKPGTSPKRWIYDTSKLASGVPARFSGSGSGTSYSLTISSMEAEDAATYYCHQRSSYPYTFGGGTKLEIKR
Result: 71
